meta.source: ChEMBL document CHEMBL3044687

Test system: Escherichia coli
Assay: Antibacterial activity against Escherichia coli at 50 ug/ml after 24 hr by disk diffusion method
Type: functional
Conditions: read-out: DIZ
Assign zone of inhibition at 50 µg/mL to each entry below.
Quick reminder: number only, in mm, skip the unit.

Query O=C1N(c2ccccc2)C(=O)C(c2ccccc2)(c2ccccc2)N1Cn1cnc2ccccc21 yields zone of inhibition at 50 µg/mL of 6

Query O=C1c2ccccc2C(=O)N1CN1C(=O)N(c2ccccc2)C(=O)C1(c1ccccc1)c1ccccc1 yields zone of inhibition at 50 µg/mL of 5

Query CC1(C)S[C@@H]2[C@H](NC(=O)[C@H](N)c3ccccc3)C(=O)N2[C@H]1C(=O)O yields zone of inhibition at 50 µg/mL of 10

Query O=C1N(c2ccccc2)C(=O)C(c2ccccc2)(c2ccccc2)N1CN1CCOCC1 yields zone of inhibition at 50 µg/mL of 4

Query CN1CCN(CN2C(=O)N(c3ccccc3)C(=O)C2(c2ccccc2)c2ccccc2)CC1 yields zone of inhibition at 50 µg/mL of 6

Query O=C1NC(c2ccccc2)(c2ccccc2)C(=O)N1Cn1cnc2ccccc21 yields zone of inhibition at 50 µg/mL of 7

Query CCN(CC)CN1C(=O)N(c2ccccc2)C(=O)C1(c1ccccc1)c1ccccc1 yields zone of inhibition at 50 µg/mL of 3

Query O=C1NC(c2ccccc2)(c2ccccc2)C(=O)N1CN1CCOCC1 yields zone of inhibition at 50 µg/mL of 4

Query O=C1NC(c2ccccc2)(c2ccccc2)C(=O)N1Cn1ccnc1 yields zone of inhibition at 50 µg/mL of 6

Query O=C1NC(c2ccccc2)(c2ccccc2)C(=O)N1CNc1nccs1 yields zone of inhibition at 50 µg/mL of 6

Query O=C1N(c2ccccc2)C(=O)C(c2ccccc2)(c2ccccc2)N1CNc1nc2ccccc2s1 yields zone of inhibition at 50 µg/mL of 6

Query CN(C)CN1C(=O)N(c2ccccc2)C(=O)C1(c1ccccc1)c1ccccc1 yields zone of inhibition at 50 µg/mL of 5

Query CCN(CC)CN1C(=O)NC(c2ccccc2)(c2ccccc2)C1=O yields zone of inhibition at 50 µg/mL of 3

Query O=C1N(c2ccccc2)C(=O)C(c2ccccc2)(c2ccccc2)N1Cn1ccnc1 yields zone of inhibition at 50 µg/mL of 5

Query CN1CCN(CN2C(=O)NC(c3ccccc3)(c3ccccc3)C2=O)CC1 yields zone of inhibition at 50 µg/mL of 6

Query O=C1NC(c2ccccc2)(c2ccccc2)C(=O)N1CNc1nc2ccccc2s1 yields zone of inhibition at 50 µg/mL of 6

Query O=C1N(c2ccccc2)C(=O)C(c2ccccc2)(c2ccccc2)N1CNc1nccs1 yields zone of inhibition at 50 µg/mL of 5

Query CN(C)CN1C(=O)NC(c2ccccc2)(c2ccccc2)C1=O yields zone of inhibition at 50 µg/mL of 5

Query O=C1NC(c2ccccc2)(c2ccccc2)C(=O)N1Cn1nnc2ccccc21 yields zone of inhibition at 50 µg/mL of 3

Query O=C1N(c2ccccc2)C(=O)C(c2ccccc2)(c2ccccc2)N1Cn1nnc2ccccc21 yields zone of inhibition at 50 µg/mL of 3

Query O=C1NC(c2ccccc2)(c2ccccc2)C(=O)N1CN1C(=O)c2ccccc2C1=O yields zone of inhibition at 50 µg/mL of 5

* * *

Tested on: Candida albicans
Test: Antifungal activity against Candida albicans at 200 ug/ml after 48 hr by disk diffusion method
Assay type: functional
Conditions: read-out: DIZ
Measured attribute: zone of inhibition at 200 µg/mL (mm)
Quick reminder: number only, in mm, skip the unit.

Query O=C1NC(c2ccccc2)(c2ccccc2)C(=O)N1CN1C(=O)c2ccccc2C1=O yields zone of inhibition at 200 µg/mL of 20

Query O=C1N(c2ccccc2)C(=O)C(c2ccccc2)(c2ccccc2)N1Cn1ccnc1 yields zone of inhibition at 200 µg/mL of 13

Query O=C1NC(c2ccccc2)(c2ccccc2)C(=O)N1CNc1nccs1 yields zone of inhibition at 200 µg/mL of 13

Query O=C1N(c2ccccc2)C(=O)C(c2ccccc2)(c2ccccc2)N1CNc1nc2ccccc2s1 yields zone of inhibition at 200 µg/mL of 20

Query CN1CCN(CN2C(=O)N(c3ccccc3)C(=O)C2(c2ccccc2)c2ccccc2)CC1 yields zone of inhibition at 200 µg/mL of 13

Query CN(C)CN1C(=O)N(c2ccccc2)C(=O)C1(c1ccccc1)c1ccccc1 yields zone of inhibition at 200 µg/mL of 19

Query O=C1N(c2ccccc2)C(=O)C(c2ccccc2)(c2ccccc2)N1Cn1nnc2ccccc21 yields zone of inhibition at 200 µg/mL of 13

Query CCN(CC)CN1C(=O)NC(c2ccccc2)(c2ccccc2)C1=O yields zone of inhibition at 200 µg/mL of 11

Query COC1=CC(=O)C[C@@H](C)[C@]12Oc1c(Cl)c(OC)cc(OC)c1C2=O [GRISEOFULVIN] yields zone of inhibition at 200 µg/mL of 40

Query O=C1N(c2ccccc2)C(=O)C(c2ccccc2)(c2ccccc2)N1CN1CCOCC1 yields zone of inhibition at 200 µg/mL of 15

Query O=C1c2ccccc2C(=O)N1CN1C(=O)N(c2ccccc2)C(=O)C1(c1ccccc1)c1ccccc1 yields zone of inhibition at 200 µg/mL of 20
